Every entry's value here was drawn from patent US9266930.

target: T1, HLA-DR8w2 (DRB1*0802) (human)
T1 chain 1: not shown
T1 chain 2: not shown
Recorded binding affinity ratio (IC50 of standard peptide / IC50 of test peptide) values for a group of binders are listed next.
result.type: binding affinity ratio (IC50 of standard peptide / IC50 of test peptide)

* VFFLALFFIIFNKES (modifications not checked) [… (Pf EXP 6)] | -0.0007
* TVLLGGVGLVLYNTE (modifications not checked) [… (Pf EXP 90)] | -0.0002
* VSTVLLGGVGLVLYN (modifications not checked) [… (Pf EXP 88)] | -0.0002
* ILSVFFLALFFIIFN (modifications not checked) [… (Pf EXP 3)] | 0.0031
